Measured values drawn from patent US20210388087A1 for this set.

# fold change of affinity values compiled below
# Target Entity: T1, Human CD137 ECD (human)
# T1 construct: entry includes C-terminal His-tag and biotin acceptor peptide; also called human CD137 extracellular domain; 4-1BB
# T1 sequence (chain, as listed by the source limits assumed): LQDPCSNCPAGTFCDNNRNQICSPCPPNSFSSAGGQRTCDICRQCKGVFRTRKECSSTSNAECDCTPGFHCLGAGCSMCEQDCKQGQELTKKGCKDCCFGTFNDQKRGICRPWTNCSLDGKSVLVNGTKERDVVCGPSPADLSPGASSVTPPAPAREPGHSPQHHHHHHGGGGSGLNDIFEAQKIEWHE
# Method Notes: Biacore SPR, vs parent H183/L072
State the answer as a number, implicitly in fold.

# example entries with known answers
>  <Binder>
H183/L072 VL Q90E (antibody, name in Kabat numbering, V domains shown, Dual-Ig) VH: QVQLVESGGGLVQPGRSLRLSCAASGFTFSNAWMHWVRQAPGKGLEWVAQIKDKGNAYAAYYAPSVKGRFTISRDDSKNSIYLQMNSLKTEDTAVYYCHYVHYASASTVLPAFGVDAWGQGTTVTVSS VL: DIVMTQSPLSLPVTPGEPASISCQASQELVHMNRNTYLHWYQQKPGQAPRLLIYKVSNRFPGVPDRFSGSGSGTDFTLKISRVEAEDVGVYYCAEGTSVPFTFGQGTKLEIK

>  <fold change of affinity [fold]>
0

$$$$
>  <Binder>
H183/L072 VL R29F (antibody, name in Kabat numbering, V domains shown, Dual-Ig) VH: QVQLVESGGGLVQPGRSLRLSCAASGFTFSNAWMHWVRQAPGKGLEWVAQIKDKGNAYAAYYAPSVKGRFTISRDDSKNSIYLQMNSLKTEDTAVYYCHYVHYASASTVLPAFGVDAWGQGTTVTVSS VL: DIVMTQSPLSLPVTPGEPASISCQASQELVHMNFNTYLHWYQQKPGQAPRLLIYKVSNRFPGVPDRFSGSGSGTDFTLKISRVEAEDVGVYYCAQGTSVPFTFGQGTKLEIK

>  <fold change of affinity [fold]>
0.7

$$$$

Proceed to the following item.
Can you share its fold change of affinity? I mean this binder: H183/L072 VL A89E (antibody, name in Kabat numbering, V domains shown, Dual-Ig) VH: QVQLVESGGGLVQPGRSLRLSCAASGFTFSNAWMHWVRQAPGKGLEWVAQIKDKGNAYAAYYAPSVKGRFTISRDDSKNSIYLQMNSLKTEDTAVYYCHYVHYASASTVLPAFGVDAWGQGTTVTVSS VL: DIVMTQSPLSLPVTPGEPASISCQASQELVHMNRNTYLHWYQQKPGQAPRLLIYKVSNRFPGVPDRFSGSGSGTDFTLKISRVEAEDVGVYYCEQGTSVPFTFGQGTKLEIK
0
